Let's look at some IC50 data for PIK3CA (human) that I collected from the literature.

INPUT: Using the record for `Cn1cc(/C=C2\Oc3ccc(NC(=O)OCCO)cc3C2=O)c2c(-c3ccccc3)ccnc21` , report its IC50.
OUTPUT: > 10000 nM

INPUT: Request: `COc1ncc(-c2cc(OCC3CCOCC3)c3nc(N)nc(C)c3c2)cc1NS(=O)(=O)c1ccc(F)cc1F`
OUTPUT: 0.84 nM

INPUT: Request: `C[C@H]1CN(c2cnc3cccc(-c4ccc5oc(N)nc5c4)c3n2)CCN1`
OUTPUT: > 10000 nM

INPUT: Request: `CC(C)Cn1c(N2CCN(C(=O)C[C@H](C)O)CC2)nc2c(N3CCOCC3)nc(-c3cnc(N)nc3)nc21`
OUTPUT: 10 to 20 nM

INPUT: Request: `COc1ncc(-c2cc(OC3CCC3)c3nc(N)nc(C)c3c2)cc1NS(=O)(=O)c1ccc(F)cc1F`
OUTPUT: 0.8 nM

INPUT: Request: `NC(=O)[C@H]1CCCN1C(=O)c1cnc2ccc(-c3ccc4oc(N)nc4c3)cn12`
OUTPUT: < 1000 nM

INPUT: Request: `COc1ncc(-c2cc(OCC3CCOCC3)c3ncnc(C)c3c2)cc1NS(=O)(=O)c1ccc(F)cc1F`
OUTPUT: 0.73 nM

INPUT: Request: CCC(Nc1ncnc2[nH]cnc12)c1cc2cccc(C)c2c(=O)n1-c1ccc(F)cc1 (centres unmarked)
OUTPUT: < 10000 nM
